- Test system: HEK-293T
- Assay name: Incucyte cell viability with HEK293T; further: unitless GR value; below 1 slowed growth and below 0 cell loss
- Assay type: toxicity, cell-based
- Measurement parameters: human, 6 h, 10 µM, compound concentration 10 uM, replicate number 2, timepoint 6 hours
Reported Growth Rate values for the following compounds.
Returns: the value as a bare number; no unit string appended.

1. CO/C1=C/C(C)=C\[C@@H](C)[C@@H](O)[C@@H](C)C/C(C)=C\C=C/[C@H](OC)C([C@@H](C)[C@@H](O)[C@H](C)[C@@]2(O)C[C@@H](O)[C@H](C)[C@@H](C(C)C)O2)OC1=O (some centres not stated); -0.9
2. COc1ncc2cc(C(=O)Nc3cc(C(=O)NCc4cccc(Cl)c4)ccc3Cl)c(=O)[nH]c2n1; 0.93
3. Cc1cc(Nc2ncc(Cl)c(Nc3ccccc3S(=O)(=O)C(C)C)n2)c(OC(C)C)cc1C1CCNCC1; -0.92

Consider CC(C)CC(=O)Nc1cncc(-c2ccc3[nH]nc(-c4nc5c(-c6cccc(F)c6)cncc5[nH]4)c3c2)c1 . Its measured Growth Rate is -0.95

Consider Nc1nc(Nc2ccccc2)nc2c1ncn2[C@@H]1O[C@H](CO)[C@@H](O)[C@H]1O . Its measured Growth Rate is 0.76

Consider Cc1[nH]cnc1CN1CCc2c(c3ccccc3n2C)C1=O . Its measured Growth Rate is 0.39

Consider S=C(NCCCc1c[nH]cn1)NCCCN(Cc1ccc(Cl)c(Cl)c1)c1ccc(Br)cn1 . Its measured Growth Rate is -0.21

* * *

- Test system: Fibroblast
- Assay name: Incucyte cell viability with human fibroblast; further: unitless GR value; below 1 slowed growth and below 0 cell loss
- Format: toxicity, cell-based
- Measurement parameters: 12 h, 10 µM, compound concentration 10 uM, replicate number 1, timepoint 12 hours
Outcome measure: Growth Rate
Returns: the value as a bare number; no unit string appended.

Here's what some known entries look like.
1) COc1cc(Nc2ncc3c(n2)-c2ccc(Cl)cc2C(c2c(F)cccc2OC)=NC3)ccc1C(=O)O [ALISERTIB]; -0.79
2) CCCN[C@H]1CCc2nc(N)sc2C1.Cl.Cl; 0.31
3) NC[C@H](O)c1ccc(O)c(O)c1.O.O=C(O)C(O)C(O)C(=O)O; 0.79
4) Cc1cc(Cn2nnc3c(-c4ccco4)nc(N)nc32)ccc1N [VIPADENANT]; 0.08

Read the next record carefully.
Consider Cl.Cl.OCCOCCN1CCN(C(c2ccccc2)c2ccc(Cl)cc2)CC1 (stereo not given) [HYDROXYZINE HYDROCHLORIDE] . Its measured Growth Rate is 0.82

* * *

- System: HEK-293T
- Assay name: Incucyte cell viability with HEK293T; further: unitless GR value; below 1 slowed growth and below 0 cell loss
- Format: toxicity, cell-based
- Measurement parameters: human, 6 h, 10 µM, compound concentration 10 uM, replicate number 2, timepoint 6 hours
Outcome measure: Growth Rate

Here's what some known entries look like.
1) O=C(O)CCCCCC[C@H]1C(=O)NC(=O)N1CCC(O)C1CCCCC1 (stereo partly specified); 0.93
2) N[C@@H](CCP(=O)(O)O)C(=O)O; 0.79
3) Cl.O=C1CC[C@@]2(O)[C@H]3Cc4ccc(O)c5c4[C@@]2(CCN3CC2CC2)[C@H]1O5 [NALTREXONE HYDROCHLORIDE]; 0.84
4) CCCCC(=O)N(Cc1ccc(-c2ccccc2-c2nnn[nH]2)cc1)[C@H](C(=O)O)C(C)C; 0.43
5) C[C@@H](OC[C@@]1(c2ccccc2)CC[C@]2(CCC(=O)N2)CN1)c1cc(C(F)(F)F)cc(C(F)(F)F)c1; 0.73

Consider Brc1c(N=C2NCCN2)ccc2nccnc12.O=C(O)C(O)C(O)C(=O)O . Its measured Growth Rate is 0.95

Consider CC(C)Oc1ccc(-c2nc(-c3cccc4c3CC[C@@H]4NCCO)no2)cc1C#N . Its measured Growth Rate is -0.68
